target: HIV-1 Reverse Transcriptase (Human immunodeficiency virus type 1 group M subtype B, UniProt P03366); construct: Lys101, Val179 (p66 subunit) and Glu138 (p51 subunit); purchased Roche; test: HIV-1 RT inhibitory action, colorimetric photometric immunoassay kit (Roche); assay type: biochemical; settings: IC50 (μM), 45 min pre-incubation, 2 h at 37 °C
Attribute: IC50
The answer is to be given in µM; state only the numeric part.

O=C1CSC(c2c(F)cccc2F)N1c1nc2cccc(Cl)c2s1 (stereo not drawn) | 0.21

For the compound O=C1CSC(c2c(Cl)cccc2Cl)N1c1nc2ccc(OC(F)(F)F)cc2s1 (stereo not drawn) , report IC50.
4.28

Name the recorded IC50 of the item O=C1CSC(c2c(F)cccc2Cl)N1c1nc2cccc(Cl)c2s1 (stereo not drawn) in your answer.
0.0047

Indicate the recorded IC50 value for this compound: COc1ccc2nc(N3C(=O)CSC3c3ccc(F)cc3)sc2c1 (stereo not drawn)
1.51

State, in one line, measured IC50 of COc1ccc2nc(N3C(=O)CSC3c3ccc([N+](=O)[O-])cc3)sc2c1 (stereo not drawn)
4

Give the value of IC50 reported for the following: CCOc1ccc2nc(N3C(=O)CSC3c3ccc(OC)cc3)sc2c1 (stereo not drawn)
1.93

Look up IC50 of COc1ccc(C2SCC(=O)N2c2nc3ccc(OC)cc3s2)cc1 (stereo not drawn) and report it.
2.39

State, in one line, measured IC50 of CCOc1ccc2nc(N3C(=O)CSC3c3ccc(Cl)cc3)sc2c1 (stereo not drawn)
2.48
